Give measured TGI for each item. Keep answers brief.
- Test system: CCRF-CEM leukemia
- ASSAY_PROCEDURE: NCI tumour cell line growth inhibition, 48 h

For every record below, what is its TGI?
1. CC(=O)NNc1nc(C)c(C(=O)NNC(=O)C(=O)Nc2ccc([N+](=O)[O-])cc2[N+](=O)[O-])s1
2. O=C(Nc1cccc(-n2cc(-c3ccncc3)c(-c3cc(O)cc(Cl)c3)n2)c1)c1ccc(N2CCOCC2)c(C(F)(F)F)c1
3. COC(=O)CNC(=O)C(CSC(=O)OCC1c2ccccc2-c2ccccc21)NC(=O)CCC(NC(=O)OCC1c2ccccc2-c2ccccc21)C(=O)OC (configuration not stated)
4. CN(C)c1nc(Oc2nc(N(C)C)nc(N(C)C)n2)nc(N(C)C)n1
5. CN[C@@H](C)C(=O)N[C@H]1CN(S(=O)(=O)c2cccc(S(=O)(=O)N3CC[C@H]4CC[C@@H](C(=O)NC(c5ccccc5)c5ccccc5)N4C(=O)[C@@H](NC(=O)[C@H](C)NC)C3)c2)CC[C@H]2CC[C@@H](C(=O)NC(c3ccccc3)c3ccccc3)N2C1=O
6. O=C1/C(=C\c2ccccc2)CN(C(=O)CCN2CCCCC2)C/C1=C/c1ccccc1
7. Cc1nc2ccc(Cl)cc2c(-n2ccnc2)c1CCn1ccnc1

Return:
79.6 µM
> 100 µM
38.7 µM
> 100 µM
> 100 µM
0.866 µM
69.3 µM

----------
For each record, write down the corresponding GI50.
- Test system: CCRF-CEM leukemia
- ASSAY_PROCEDURE: NCI tumour cell line growth inhibition, 48 h

Would you please look over these solved cases?
COMPOUND	ASSAY_READOUT	RESULT
COc1ccc2c(c1)c(-c1nc(-c3c[nH]c4ncccc34)cs1)cn2CCCN1CCOCC1	GI50	2.76 µM
O=C(Nc1cccc(-n2cc(-c3ccncc3)c(-c3cc(O)cc(Cl)c3)n2)c1)c1ccc(N2CCOCC2)c(C(F)(F)F)c1	GI50	0.543 µM
CN(C)CCCC1(c2ccc(F)cc2)OCc2cc(-c3cccc4[nH]ccc34)ccc21 (centres undefined)	GI50	1.65 µM
Cn1c([N+](=O)[O-])cnc1C=C1C(=O)c2ccccc2C1=O	GI50	1.85 µM

// input: 8 compounds below; output: GI50 for each
1. COc1cc2c(cc1Nc1nc(N3CCc4ccccc43)c3cc[nH]c3n1)N(C(=O)CN(C)C)CC2
2. c1ccc(-c2[nH]ncc2-c2ccnc(-c3ccc(OCCn4ccnc4)cc3)c2)nc1
3. COc1ccc2c(c1)C(=O)c1c-2c(Nc2ccccc2OC)nc2ccccc12
4. COc1cc2c(N3CCN(C(=O)Nc4ccc(OC(C)C)cc4)CC3)ncnc2cc1OCCCN1CCCCC1
5. O=C1NN(C2=NNC3(C(=O)N2)c2ccccc2-c2ccccc23)C(c2ccccc2)=N/C1=C/c1ccc(Cl)cc1
6. CC1(C)OC[C@@H]([C@@]2(CO[Si](c3ccccc3)(c3ccccc3)C(C)(C)C)CC=CC(=O)O2)O1
7. COc1ccc(OC)c(/C=C/c2nc(=S)n(-c3ccc(Cl)cc3)[nH]2)c1
8. Cc1c2ccnc(C(N)=O)c2c(C)c2c1[nH]c1ccccc12

Return:
1. 0.611 µM
2. 17.3 µM
3. > 100 µM
4. 18.3 µM
5. 52.6 µg/mL
6. 6.63 µM
7. 4.77 µM
8. 3.64 µM

List reported GI50 for each of these compounds:
1. CCN(CC)Cc1cc(Nc2nc(NC3CCC(N(C)C)CC3)c3ccccc3n2)ccc1OC (centres undefined)
2. COC1N(C2CC(O)C(CO)O2)C(=O)NC(=O)C1(F)Br (centres undefined)

Return:
1. 2.5 µM
2. 27.6 µM
